- System: Vero cells
- experiment.notes: Cellular toxicity assay, Vero cells
- measurement.parameters: read-out: Cytotoxicity CC50 Vero; Vero cells
property.name: CC50

INPUT: GET /values?readout=CC50&system=Vero cells&item= O=c1nc(NO)ccn1[C@@H]1O[C@H](CO)[C@@H](O)[C@H]1O [NHC, N^4-hydroxycytidine]
OUTPUT: 16.5 µM
